Sourced from the supplement of paper PMC12317010

Catalogue of collision cross section in nitrogen readings, one per entry.
- method_notes: collision cross section in nitrogen (drift tube, single-field); higher = larger gas-phase ion size;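 also: chemical standards at 10 µM analysed by drift tube IMS-QTOF MS in about 3.95 torr nitrogen, mean of duplicate injections differing ≤1%, mass error below 10 ppm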
- condition_info: ion type: [M+Na]; ion source: ESI; ion mode: Positive

{"molecule": "Nc1cnn(-c2ccccc2)c(=O)c1Cl", "output_unit": "Å²", "collision cross section in nitrogen": 158}
{"molecule": "COc1cc(OC)nc(NC(=O)NS(=O)(=O)c2ncccc2C(=O)N(C)C)n1", "output_unit": "Å²", "collision cross section in nitrogen": 196.2}
{"molecule": "CNC(=O)C(c1ccccc1)c1ccccc1 [N-methyl-alpha-phenylbenzeneacetamide]", "output_unit": "Å²", "collision cross section in nitrogen": 162.2}
{"molecule": "C=COCCOCCOCCOC=C", "output_unit": "Å²", "collision cross section in nitrogen": 143.4}
{"molecule": "CCCCOC(=O)C(C)Oc1ccc(Oc2ccc(C(F)(F)F)cn2)cc1 (stereo not drawn)", "output_unit": "Å²", "collision cross section in nitrogen": 194.4}
{"molecule": "O=C(O)C1C2CCC(O2)C1C(=O)O (stereo not drawn) [Endothal]", "output_unit": "Å²", "collision cross section in nitrogen": 140.1}
{"molecule": "O=c1c(-c2ccc(O)cc2)coc2cc(O)cc(O)c12", "output_unit": "Å²", "collision cross section in nitrogen": 171.3}
{"molecule": "CCOP(=S)(OCC)Oc1ccc(S(C)=O)cc1 (stereo not drawn)", "output_unit": "Å²", "collision cross section in nitrogen": 169.7}

----------
Catalogue of collision cross section in nitrogen readings, one per entry.
- method_notes: collision cross section in nitrogen (drift tube, single-field); higher = larger gas-phase ion size
- condition_info: ion type: [M-H]; ion source: ESI; ion mode: Negative
Counter-ions that a name gives are not always drawn.

{"compound": "[O-][Cl+3]([O-])([O-])O [Potassium perchlorate]", "collision cross section in nitrogen (Å²)": 105.2}
{"compound": "CCSC(C)CC1CC(=O)C(C(CC)=NOC/C=C/Cl)=C(O)C1 (stereo not drawn)", "collision cross section in nitrogen (Å²)": 184.6}
{"compound": "CCCCCc1cc(O)cc(O)c1", "collision cross section in nitrogen (Å²)": 148.5}
{"compound": "O=S(=O)(O)c1ccc(N=Nc2c(O)ccc3ccccc23)c2ccccc12 [C.I. Acid Red 88, monosodium salt]", "collision cross section in nitrogen (Å²)": 193.7}
{"compound": "Cc1cc(C(C)(C)c2cc(C)c(O)c(C)c2)cc(C)c1O", "collision cross section in nitrogen (Å²)": 182.9}
{"compound": "CC(C)c1cccc(C(C)C)c1N1C(=O)c2ccc(O)cc2C1=O [2-(2,6-Diisopropylphenyl)-5-hydroxy-1H-isoindole-1,3-dione]", "collision cross section in nitrogen (Å²)": 182}
{"compound": "OC(c1ccc(Cl)cc1)(c1ccc(Cl)cc1)c1cccnc1", "collision cross section in nitrogen (Å²)": 177.2}
{"compound": "Oc1cc2ccccc2c2ccccc12", "collision cross section in nitrogen (Å²)": 140.7}
{"compound": "Cc1oc(-c2ccccc2)nc1CCOc1ccc(C[C@H](Nc2ccccc2C(=O)c2ccccc2)C(=O)O)cc1", "collision cross section in nitrogen (Å²)": 228.5}
{"compound": "Cc1nc(-c2ccccn2)ncc1C(=O)Nn1cc(C)c2cc(F)ccc21", "collision cross section in nitrogen (Å²)": 193.9}
{"compound": "Cc1cc(-n2nc3ccc(Cl)cc3n2)c(O)c(C(C)(C)C)c1", "collision cross section in nitrogen (Å²)": 183.2}
{"compound": "Cc1cc(C)cc(O)c1", "collision cross section in nitrogen (Å²)": 127.3}
{"compound": "O=S(=O)(O)c1cc(Nc2nc(Nc3ccccc3)nc(N(CCO)CCO)n2)ccc1C=Cc1ccc(Nc2nc(Nc3ccccc3)nc(N(CCO)CCO)n2)cc1S(=O)(=O)O [C.I. Fluorescent Brightener 28, disodium salt]", "collision cross section in nitrogen (Å²)": 282.8}
{"compound": "CCCCc1c(C)nc(NCC)nc1O", "collision cross section in nitrogen (Å²)": 155.2}
{"compound": "CCCCCCCCCCCCOC(=O)c1cc(O)c(O)c(O)c1 [Lauryl gallate]", "collision cross section in nitrogen (Å²)": 183.1}
{"compound": "O=C(O)Cc1cc(I)c(Oc2cc(I)c(O)c(I)c2)c(I)c1", "collision cross section in nitrogen (Å²)": 203.1}
{"compound": "Cc1[nH]c(=O)c(C#N)cc1-c1ccncc1", "collision cross section in nitrogen (Å²)": 147.4}
{"compound": "CCCCCCCCCCCCCCCC(=O)OCC [Ethyl hexadecanoate]", "collision cross section in nitrogen (Å²)": 177.9}
{"compound": "CC(C)c1ccc(S(=O)(=O)O)cc1", "collision cross section in nitrogen (Å²)": 147.7}
{"compound": "O=C(O)C1(C(=O)Nc2ccc(Cl)cc2Cl)CC1 [Cyclanilide]", "collision cross section in nitrogen (Å²)": 156.3}
{"compound": "CCOC(=O)O[C@H](C)OC(=O)c1ccc2c(c1)cc(C(=O)NC1CCN(C(C)C)CC1)n2Cc1cc(-c2ccc(Cl)s2)on1", "collision cross section in nitrogen (Å²)": 269.8}
{"compound": "CN1C(=O)CCS(=O)(=O)C1c1ccc(Cl)cc1 (stereo not drawn)", "collision cross section in nitrogen (Å²)": 154.1}
{"compound": "Nc1ccc(O)c(C(=O)O)c1", "collision cross section in nitrogen (Å²)": 127.8}
